- assayProtocol: Toxicity liver stage against HepG2, at 10uM
- Format: cell-based
- Set-up: test concentration 10 uM, cell line HepG2-A16-CD81EGFP
- conditionLabel: human, HepG2-A16-CD81EGFP cells; read-out: INHIBITION
endpointLabel: cytotoxicity at 10 µM (%)
Give the value in % but do not write % after it.

What does the record list as cytotoxicity at 10 µM for CCOc1ccc(-c2c(-c3ccccc3)ncn2C2CCNC2)cn1 (stereo not drawn) ?
-51.9

Consider the compound `CN(C)c1cc(CNC(=O)c2n[nH]c(=O)c3ccccc23)ccn1` and give its measured cytotoxicity at 10 µM.
-3.79

Give its cytotoxicity at 10 µM value. Item: `CCc1cnc(C)nc1NCc1cnc2c(c1)CCC2`
8.83

Using the record for `Cc1nc(C)c(C)c(NCCSCc2[nH]cnc2C)n1` , report its cytotoxicity at 10 µM.
2.3

Look up cytotoxicity at 10 µM for this compound: `CN(C)S(=O)(=O)N1CCN(C(=O)c2ccc3ccn(C)c3c2)CC1`
-7.56

Any idea what its cytotoxicity at 10 µM is? The compound is `CC(C)C(=O)N(C)CC(=O)Nc1ccc(Br)cn1`
-6.22

// query cytotoxicity at 10 µM value for entry CCN(CC1CN(Cc2cccc(C#N)c2)CCO1)c1cccnn1 (stereo not drawn)
17

For the compound `CCN1CCC2(CC1)OCCN2C(=O)c1ccc(OC)c(Cl)c1` , what cytotoxicity at 10 µM is on record?
9.55

May I ask what cytotoxicity at 10 µM has been recorded for `O=C(Cc1ccccc1)N1CC[C@@H]2CNS(=O)(=O)[C@@H]2CC1` ?
-9.88

# get_value(readout='cytotoxicity at 10 µM', item= Cc1ccc(CNC(=O)CN2CCN(CC(O)C3CC3)CC2)cc1 (stereo not drawn) )
4.91

Which cytotoxicity at 10 µM value belongs to COCC1Cn2nnc(-c3cnn(C)c3)c2CN1Cc1ccc(C)o1 (stereo not drawn) ?
4.82

Look at this compound and give its reported cytotoxicity at 10 µM. O=C(NCc1ccccc1F)C1=NOC2(CCNC2)C1 (stereo not drawn)
3.23

Quick check: cytotoxicity at 10 µM of `CN1CCN([C@H]2COC[C@@H]3CN(Cc4cccnc4)C[C@@H]32)CC1` ?
-77.9

Item CC(O)CNC(=O)NCCCN1CCN(c2ncccn2)CC1 (stereo not drawn) has what recorded cytotoxicity at 10 µM?
-48.8

Find the recorded cytotoxicity at 10 µM belonging to c1ccc(OCCNC2CCCN(Cc3noc(C4CC4)n3)C2)cc1 (stereo not drawn) and report it.
-13.6

# input compound: `CC(C)(O)c1cn(C2CCN(C(=O)CCc3ccncc3)CC2)nn1` ; wanted: its cytotoxicity at 10 µM
-5.32

What does the record list as cytotoxicity at 10 µM for CCc1nc(C2CCCN2CC(=O)Nc2c(C)n[nH]c2C)no1 (stereo not drawn) ?
-3.79

Query: cytotoxicity at 10 µM; subject: `Cc1ncncc1-c1ccnc(NC(C)C)n1`
-0.279

* * *

Provide the reported cytotoxicity at 10 µM of each item.
- assayProtocol: Toxicity liver stage against HepG2, at 10uM
- Type: cell-based
- Set-up: test concentration 10 uM, cell line HepG2-A16-CD81EGFP
- conditionLabel: human, HepG2-A16-CD81EGFP cells; read-out: INHIBITION
Give a bare numeral; the unit % is implied.

Bench note: what cytotoxicity at 10 µM did `Cn1cc(CN2CCCn3cnc(COCc4ccco4)c3C2)cn1` show?
7.61

What does the record list as cytotoxicity at 10 µM for CC(C(=O)Nc1ccc(Cl)cn1)n1ccc(C(F)(F)F)n1 (stereo not drawn) ?
17.6

I'd like to know its cytotoxicity at 10 µM. The compound in question is `O=C(CCN1C[C@@H]2CC[C@H]1CN(c1ncccn1)C2)NCc1ccco1`
-1.18

Could you tell me which cytotoxicity at 10 µM is on file for `c1cncc(CN2CCO[C@H]3[C@H](OCCN4CCCC4)CC[C@@H]32)c1` ?
3.36

What value of measured cytotoxicity at 10 µM is listed for `Clc1ccc(C2(CNC3=NCCN3)CCCC2)cc1` ?
14.4

State the recorded cytotoxicity at 10 µM for this entry: Cc1nc(CN2CCCC2Cn2cncn2)nc2ccccc12 (stereo not drawn)
-1.63

Request the reported cytotoxicity at 10 µM associated with `Cc1ccc(CN2CC[C@H]3[C@H]2CCN3S(=O)(=O)C2CC2)cc1`
10.2

What value of cytotoxicity at 10 µM has been reported for the following compound? `COCCNC(=O)C[C@@H]1COC[C@H]2CN(C(=O)C3CCOCC3)C[C@@H]12`
-94.8

Form field: reported cytotoxicity at 10 µM of O=C1NCC(CN2CCc3onc(-c4ccc(C(F)(F)F)cc4)c3C2)O1 (stereo not drawn)
2.02

May I ask what cytotoxicity at 10 µM has been recorded for `O=C(CNC(=O)N1CCN(c2cccc(Cl)c2)CC1)Nc1ccccn1` ?
-0.74

Query (compound): `CC(C)(C)c1cn2nc(N3CCC[C@@H]3CO)sc2n1` ; field requested: cytotoxicity at 10 µM
3.64

Given `CN(C)C(=O)CN1C(=O)CCC12CCN(Cc1cccn1C)CC2` , state its recorded cytotoxicity at 10 µM.
6.45

Please look up its cytotoxicity at 10 µM: Cc1cccc2c(CCNC(=O)NCC[S+](C)[O-])c[nH]c12 (stereo not drawn)
9.62

* * *

Assignment: determine reported cytotoxicity at 10 µM for the given compounds.
- assayProtocol: Toxicity liver stage against HepG2, at 10uM
- Assay type: cell-based
- Set-up: test concentration 10 uM, cell line HepG2-A16-CD81EGFP
- conditionLabel: human, HepG2-A16-CD81EGFP cells; read-out: INHIBITION
Kindly provide the numeric value in % only, without the unit symbol.

What measured cytotoxicity at 10 µM goes with O=C(O)COc1ccccc1CN1CCCC1c1ccncn1 (stereo not drawn) ?
-29.2

Bench note: what cytotoxicity at 10 µM did `CN(Cc1ccco1)C(=O)c1cccc(N2CCCC2=O)c1` show?
-4.5

State the recorded cytotoxicity at 10 µM for this entry: CN(Cc1ccc2c(c1)OCO2)C(=O)c1ccc(C2CCCNC2)cc1 (stereo not drawn)
-11.8

Fill in: cytotoxicity at 10 µM of CC(C)Oc1cccc(C(=O)C2CCCN(C(=O)c3ccoc3)C2)c1 (stereo not drawn) is ___
1.43

Query (compound): CCc1nc(CN2CCCC(N(C)CCn3cncn3)C2)no1 (stereo not drawn) ; field requested: cytotoxicity at 10 µM
-6.5

Using the record for `CC(C)C1=NOC2(CCN(Cc3c[nH]c4ccccc34)CC2)C1` , report its cytotoxicity at 10 µM.
3.46

// returns reported cytotoxicity at 10 µM for input `Cc1nnc2ccc(OCCNS(C)(=O)=O)nn12`
-6.02

Given the compound `CCc1cc(NC2CCN(Cc3ccccc3F)CC2)n2nccc2n1` , what is its reported cytotoxicity at 10 µM?
-6

Could you share which cytotoxicity at 10 µM value was measured for `Cc1cc(CN(C)C(=O)c2cccc(N3CCCC3=O)c2)no1` ?
0.376

So what's the measured cytotoxicity at 10 µM for this one? CCSCc1cccc(NC2CCN(C)C2=O)c1 (stereo not drawn)
1.18

Given `CC(C)N(C(=O)Cn1c(-c2ccco2)cc2cccnc21)C(C)C` , state its recorded cytotoxicity at 10 µM.
-4.32

So what does the record say about cytotoxicity at 10 µM for `COCCOCCCNC(=O)c1cc(Cl)cc2cccnc12` ?
32.6

cytotoxicity at 10 µM for `COC(=O)NCCCC(=O)NCC1(c2cccc(Cl)c2)CC1` ?
1.42

Look up cytotoxicity at 10 µM for this compound: `Cc1cc(I)c2c(c1)C(=O)C(CN1CCCC1)(CN1CCCC1)CO2`
-6.86

Look up cytotoxicity at 10 µM for this compound: `COC(=O)[C@H](CCSC)NC(=O)Cc1c(C)nn(-c2ccccc2)c1C`
-1.65

Look up cytotoxicity at 10 µM: Cc1nc(C)n(CC2CCCN(CCC(=O)NC3CCCC3)C2)n1 (stereo not drawn)
-6.73

Name the reported cytotoxicity at 10 µM value associated with the compound C[S+]([O-])c1nncn1CC(=O)c1ccc2c(c1)CCO2 (stereo not drawn)
-2.85

Field request: cytotoxicity at 10 µM | item: `Cc1ccc(OC2(C(=O)O)CCN(C(=O)c3ccoc3C)CC2)cn1`
-1.56

Would you mind telling me what cytotoxicity at 10 µM value was observed for Cc1nc(C)n(CC2CN(Cc3cccc(OC(C)C)c3)CCO2)n1 (stereo not drawn) ?
-5.44

I have this compound here, `CCc1ccc(C(=O)N2CCCN(Cc3csc(CC)n3)CC2)o1` , and I need its recorded cytotoxicity at 10 µM.
-1.86

cytotoxicity at 10 µM for `COCc1noc(-c2ccc(N3CCC[C@H]3CO)nc2)n1` ?
-8.26

# input compound: `CC(C)c1nccn1CCCNC(=O)c1ccc(-c2cnn(C)c2)nc1` ; wanted: its cytotoxicity at 10 µM
-9.36

Item `Cc1cnc(N2CCn3c(CN4CCOCC4)nnc3C2)nc1` has what recorded cytotoxicity at 10 µM?
-153
